- TESTED_TARGET: T1, huNav1.7α + β1-β2-β3 (human, UniProt Q15858 1-1988; A5A6L6 19-218; O60939 30-215; Q2KI11 23-215)
- T1 construct: also called huNav1.7-beta1-beta2-beta3; huNav1.7-β1-β2-β3
- ASSAY_PROTOCOL: competition FACS vs EC25 of F103275B05(N93R), HEK FlpIn
ENDPOINT_LABEL: IC50 (nM)
Numbers only, in nM.

Go through the list and state IC50 for each entry.
1. F010300468 (VHH, also called F0103275B05(N93R) + FLAG3-HIS6; F103275B05(N93R) + FLAG3-HIS6) VHH: EVQLVESGGGLVQPGGSLRLSCAASGSIFNINSMAWYRRAPGKQRELVASSTNGGSTNYADSVKGRFTISRDNAKRVYLQMNSLTPEDTAVYYCRALLQPSIYDISRTYWGQGTLVTVSS
2. F010302378 (bispecific antibody, also called F0103275B05(E1D, N93R)-50GS-F0103495F09-FLAG3-HIS6) DVQLVESGGGLVQPGGSLRLSCAASGSIFNINSMAWYRRAPGKQRELVASSTNGGSTNYADSVKGRFTISRDNAKRVYLQMNSLTPEDTAVYYCRALLQPSIYDISRTYWGQGTLVTVSSGGGGSGGGGSGGGGSGGGGSGGGGSGGGGSGGGGSGGGGSGGGGSGGGGSEVQLVESGGGLVQAGSSLSLSCAASGRALSTYAMGWFRQAPGKEREFVARISRSGITTYYTDSVKGRFTISRDRAKDTVYLQMNSLKPEDTAIYLCAADASTNPAGYYLRNRYDYWGQGTLVTVSSGAADYKDHDGDYKDHDIDYKDDDDKGAAHHHHHH
3. F010302377 (bispecific antibody, also called F0103275B05(E1D, N93R)-50GS-F0103492E09-FLAG3-HIS6) DVQLVESGGGLVQPGGSLRLSCAASGSIFNINSMAWYRRAPGKQRELVASSTNGGSTNYADSVKGRFTISRDNAKRVYLQMNSLTPEDTAVYYCRALLQPSIYDISRTYWGQGTLVTVSSGGGGSGGGGSGGGGSGGGGSGGGGSGGGGSGGGGSGGGGSGGGGSGGGGSEVQLVESGGGLVQAGGSLRLSCAASKSILSFAYMRWYRQAPGKQREFVASIAIGGATSYTDSVKGRFTISRDNAKNTVYLQMNSLKPEDTAVYYCSAPAGQYRGQGTLVTVSSGAADYKDHDGDYKDHDIDYKDDDDKGAAHHHHHH
4. F010300191 (bispecific antibody, also called F0103275B05-50GS-F0103240B04-FLAG3-HIS6) EVQLVESGGGLVQPGGSLRLSCAASGSIFNINSMAWYRRAPGKQRELVASSTNGGSTNYADSVKGRFTISRDNAKRVYLQMNSLTPEDTAVYYCNALLQPSIYDISRTYWGQGTLVTVSSGGGGSGGGGSGGGGSGGGGSGGGGSGGGGSGGGGSGGGGSGGGGSGGGGSEVQLVESGGGLVQAGGSLRLSCAASGGTGRRYAMGWFRQAPGKEREIVAAIRWSAMTYYADDGKGRFTISRDNAKNTVYLQMNSLKPEDTAIYYCAYTWDYFKYDQVRAYRGWGQGTLVTVSSGAADYKDHDGDYKDHDIDYKDDDDKGAAHHHHHH
5. F010302380 (bispecific antibody, also called F0103275B05(E1D, N93R)-50GS-F0103505D08(L108Q)-FLAG3-HIS6) DVQLVESGGGLVQPGGSLRLSCAASGSIFNINSMAWYRRAPGKQRELVASSTNGGSTNYADSVKGRFTISRDNAKRVYLQMNSLTPEDTAVYYCRALLQPSIYDISRTYWGQGTLVTVSSGGGGSGGGGSGGGGSGGGGSGGGGSGGGGSGGGGSGGGGSGGGGSGGGGSEVQLVESGGGLVQAGGSLRLSCVTSGRTSDLSTMNWFRQAPGKEREFVARITRRGSTYYAESVKERFIISRDNAKNTVYLQMNSLKPEDTANYYCTAASEMGYHYRGQGTQVTVSSGAADYKDHDGDYKDHDIDYKDDDDKGAAHHHHHH

Completion:
[97, 12, 5.2, 0.1, 8.7]
